Ki reference
Assay: Inhibition of N-terminal His-tagged Mycobacterium tuberculosis H37Rv IMPDH
Details: read-out: Ki(app)

| compound | Ki |
| --- | --- |
| COc1c(C)c2c(c(O)c1CCn1cc(COC[C@H]3O[C@@H](n4cnc5c(N)ncnc54)[C@H](O)[C@@H]3O)nn1)C(=O)OC2 | > 100 µM |
| COc1c(C)c2c(c(O)c1C/C=C(\C)CCC(=O)O)C(=O)OC2 [MYCOPHENOLIC ACID] | 62 µM |
| COc1c(C)c2c(c(O)c1CCOP(=O)(O)CP(=O)(O)OC[C@H]1O[C@@H](n3cnc4c(N)nc(-c5ccccc5)nc43)[C@H](O)[C@@H]1O)C(=O)OC2 | > 100 µM |
| COc1c(C)c2c(c(O)c1CCNCc1cn(C[C@H]3O[C@@H](n4cnc5c(N)ncnc54)[C@H](O)[C@@H]3O)nn1)C(=O)OC2 | > 100 µM |
| COc1c(C)c2c(c(O)c1C/C=C(\C)COP(=O)(O)CP(=O)(O)OC[C@H]1O[C@@H](n3cnc4c(N)ncnc43)[C@H](O)[C@@H]1O)C(=O)OC2 | > 100 µM |
| COc1c(C)c2c(c(O)c1CCNS(=O)(=O)CS(=O)(=O)NC[C@H]1O[C@@H](n3cnc4c(N)nc(-c5ccccc5)nc43)[C@H](O)[C@@H]1O)C(=O)OC2 | > 100 µM |
| CCc1nc(N)c2ncn([C@@H]3O[C@H](CNS(=O)(=O)CS(=O)(=O)NCCc4c(O)c5c(c(C)c4OC)COC5=O)[C@@H](O)[C@H]3O)c2n1 | > 100 µM |
| C#Cc1nc(N)c2ncn([C@@H]3O[C@H](CNS(=O)(=O)CS(=O)(=O)NCCc4c(O)c5c(c(C)c4OC)COC5=O)[C@@H](O)[C@H]3O)c2n1 | > 100 µM |

---

Biological target: Inosine-5'-monophosphate dehydrogenase 1 (Homo sapiens, UniProt P20839)
Sequence (P20839 whole entry): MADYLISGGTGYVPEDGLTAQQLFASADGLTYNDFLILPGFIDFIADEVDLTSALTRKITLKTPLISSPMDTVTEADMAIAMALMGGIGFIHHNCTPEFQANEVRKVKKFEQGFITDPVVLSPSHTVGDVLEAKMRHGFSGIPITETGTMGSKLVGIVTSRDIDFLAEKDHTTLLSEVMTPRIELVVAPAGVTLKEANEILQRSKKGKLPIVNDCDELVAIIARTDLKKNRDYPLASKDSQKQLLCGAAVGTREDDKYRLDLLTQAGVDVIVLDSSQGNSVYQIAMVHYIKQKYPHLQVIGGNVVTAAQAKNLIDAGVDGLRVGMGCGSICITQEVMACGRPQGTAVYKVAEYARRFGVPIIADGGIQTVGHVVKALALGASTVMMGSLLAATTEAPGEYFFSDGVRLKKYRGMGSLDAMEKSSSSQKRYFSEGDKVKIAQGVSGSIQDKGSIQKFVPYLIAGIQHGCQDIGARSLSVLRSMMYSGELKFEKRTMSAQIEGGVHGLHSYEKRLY
Assay: Inhibition of human IMPDH1
Conditions: read-out: Ki(app)

| entry-smiles | Ki |
| --- | --- |
| COc1c(C)c2c(c(O)c1C/C=C(\C)COP(=O)(O)CP(=O)(O)OC[C@H]1O[C@@H](n3cnc4c(N)ncnc43)[C@H](O)[C@@H]1O)C(=O)OC2 | 520 nM |

---

Target: Inosine-5'-monophosphate dehydrogenase 1 (Homo sapiens, UniProt P20839)
Experiment: Inhibition of human IMPDH1
Details: read-out: Ki
pKi: −log10 of the molar value.

| entry-smiles | pKi |
| --- | --- |
| COc1c(C)c2c(c(O)c1CCn1cc(COC[C@H]3O[C@@H](n4cnc5c(N)ncnc54)[C@H](O)[C@@H]3O)nn1)C(=O)OC2 | 5.82 |
| COc1c(C)c2c(c(O)c1CCNCc1cn(C[C@H]3O[C@@H](n4cnc5c(N)ncnc54)[C@H](O)[C@@H]3O)nn1)C(=O)OC2 | 4.85 |
| COc1c(C)c2c(c(O)c1C/C=C(\C)Cn1cc(COC[C@H]3O[C@@H](n4cnc5c(N)ncnc54)[C@H](O)[C@@H]3O)nn1)C(=O)OC2 | 7.15 |

---

Molecular target: Inosine-5'-monophosphate dehydrogenase 2 (Homo sapiens)
Assay: Inhibition of human IMPDH2
Settings: read-out: Ki(app)

| entry-smiles | Ki [nM] |
| --- | --- |
| COc1c(C)c2c(c(O)c1C/C=C(\C)COP(=O)(O)CP(=O)(O)OC[C@H]1O[C@@H](n3cnc4c(N)ncnc43)[C@H](O)[C@@H]1O)C(=O)OC2 | 380 |

Values from ChEMBL document CHEMBL1177707
